Test system: MINK
Construct: gene MINK1
REPORTED_CONDITIONS: concentration: 1 μM, replicates: in singlicate; n = 1;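 further: KINOMEscan kinase panel screen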
Some compounds, each annotated with its measured %Inh.
Answer format: number, then unit.

- COMPOUND: "COC(=O)c1c(-c2ccccc2)c2cc(OC)ccc2c(=O)n1Cc1ccccc1"
  %Inh: "0%"
- COMPOUND: "CCn1c(-c2cccnc2O)nc2cnccc21 [SB-736715]"
  %Inh: "0%"
- COMPOUND: "CC(=O)Nc1nc2cnc(Nc3cc(NC(=O)c4cccc(CCC#N)c4)ccc3C)nc2s1"
  %Inh: "4%"
- COMPOUND: "CCn1c(-c2ccccn2)nc2cnccc21 [SB-736398]"
  %Inh: "0%"

We now examine a further compound.
### Prompt Find the recorded %Inh belonging to CS(=O)(=O)c1ccc(-c2c(-c3ncn[nH]3)sc(N3CCOCC3)c2C#N)cc1 and report it.
### Response 21%

---

Tested on: MAST1
REPORTED_CONDITIONS: concentration: 1 μM, replicates: in singlicate; n = 1
PARAMETER: %Inh (%)
Write the answer as a number in %, unit excluded.

- MOLECULE: "O=c1cc(N2CCOCC2)nc2n(Cc3cccc(Cl)c3Cl)ccn12 [GSK2286295]"
  %Inh [%]: 0
- MOLECULE: "COC(=O)c1c(-c2ccccc2)c2cc(OC)ccc2c(=O)n1Cc1ccccc1"
  %Inh [%]: 20
- MOLECULE: "Cc1cccc(-c2nc(Nc3ccncc3)c3ccccc3n2)n1 [GW855857]"
  %Inh [%]: 50
- MOLECULE: "Cc1ccc(NC(=O)Nc2cc(C(C)(C)C)nn2-c2ccccc2)cc1 [GSK1014915]"
  %Inh [%]: 0

### Prompt Find the recorded %Inh belonging to Cl.c1ccc(-c2n[nH]cc2-c2ccnc(-c3ccc(CN4CCOCC4)cc3)c2)nc1 [GW776245] and report it.
### Response 0

### Prompt How about Cc1cc(N2Cc3ccccc3C2)nc(Nc2ccc(S(=O)(=O)N3CCOCC3)cc2)n1.Cl [GSK1669917] ?
### Response 0

### Prompt How about CC(C)(C)c1ccc(C(=O)Nc2cn3cc(-c4cccnc4)ccc3n2)cc1 ?
### Response 0

---

Test system: PAK2
REPORTED_CONDITIONS: concentration: 1 μM, replicates: in singlicate; n = 1
Some molecules, each annotated with its measured %Inh.
Write the answer as a number in %, unit excluded.

Sample records with %Inh:
- MOLECULE: "Cc1cc(NCC(c2ccccc2)c2ccccc2)nc(NCc2ccc(C(F)(F)F)cc2)n1 [GW497681]"
  %Inh [%]: 2
- MOLECULE: "CC(C)(C)c1ccc(C(=O)Nc2cn3cc(Cl)ccc3n2)cc1"
  %Inh [%]: 14

### Prompt Find the recorded %Inh belonging to COc1cc(Nc2nccc(N3CCC(NC(=O)Nc4cc(C)ccc4C)C3)n2)cc(OC)c1OC (stereo not drawn) [GSK1379762] and report it.
### Response 4

---

Test system: MARK3
REPORTED_CONDITIONS: concentration: 1 μM, replicates: in singlicate; n = 1
PARAMETER: %Inh

Sample records with %Inh:
- MOLECULE: "Cc1cccc(-c2nc(-c3ccc(S(C)(=O)=O)cc3)sc2-c2ccnc(NCCc3ccccc3)c2)c1"
  MEASURED_TARGET: "MARK3"
  %Inh: "0%"
- MOLECULE: "C[C@@H]1CCCCN1c1cc(-c2ccc3c(N)n[nH]c3c2)nc(N)n1 [GSK2258759]"
  MEASURED_TARGET: "MARK3"
  %Inh: "0%"
- MOLECULE: "Cn1ccc2ncnc(Oc3cccc(C(=O)Nc4ccccc4)c3)c21"
  MEASURED_TARGET: "MARK3"
  %Inh: "0%"
- MOLECULE: "Fc1cccc(COc2nnc(-c3ccc4c(c3)CCO4)o2)c1"
  MEASURED_TARGET: "MARK3"
  %Inh: "0%"
- MOLECULE: "Cc1ccc(C(=O)Nc2ccc(Nc3ccnc4cc(-c5ccccn5)ccc34)cc2O)cc1.Cl [GW440146]"
  MEASURED_TARGET: "MARK3"
  %Inh: "2%"
- MOLECULE: "COc1cc2nccc(Nc3ccc(NC(=O)c4ccc(C)cc4)c(O)c3)c2cc1OC.Cl [GW440132]"
  MEASURED_TARGET: "MARK3"
  %Inh: "0%"
- MOLECULE: "CCn1c(-c2ccccn2)nc2cnccc21 [SB-736398]"
  MEASURED_TARGET: "MARK3"
  %Inh: "3%"
- MOLECULE: "CN1C(=O)C(Nc2ccc(Cl)c(C(=O)O)c2)=C(c2ccc(Cl)cc2)C1=O [SB-404290]"
  MEASURED_TARGET: "MARK3"
  %Inh: "0%"
- MOLECULE: "Cc1cc(-c2ccc3c(c2)CC[C@@H](N[C@@H](C)c2ccccc2)C3)cnc1N.Cl [GW412617]"
  MEASURED_TARGET: "MARK3"
  %Inh: "32%"
- MOLECULE: "COC(=O)c1c(-c2ccccc2)c2cc(OC)ccc2c(=O)n1Cc1ccccc1"
  MEASURED_TARGET: "MARK3"
  %Inh: "0%"

### Prompt Find the recorded %Inh belonging to COc1ccc2nc(-c3cccc(C)n3)nc(Nc3ccncc3)c2c1 [GSK204919] and report it.
### Response 0%

### Prompt How about COc1cccc(NC(=O)NC2CCN(c3ccnc(Nc4ccc(F)cc4)n3)C2)c1 (stereo not shown) [GSK1379721] ?
### Response 9%

### Prompt How about O=C(Nc1n[nH]c2nc(-c3nccs3)c(Br)cc12)C1CC1 [SB-742251] ?
### Response 0%
